# ASSAYED_SYSTEM: A₂ receptor (Rattus norvegicus, UniProt P30543)
# Construct: from tissue; host or cells: rat corpus striatum membrane preparation
# Sequence (P30543 whole entry): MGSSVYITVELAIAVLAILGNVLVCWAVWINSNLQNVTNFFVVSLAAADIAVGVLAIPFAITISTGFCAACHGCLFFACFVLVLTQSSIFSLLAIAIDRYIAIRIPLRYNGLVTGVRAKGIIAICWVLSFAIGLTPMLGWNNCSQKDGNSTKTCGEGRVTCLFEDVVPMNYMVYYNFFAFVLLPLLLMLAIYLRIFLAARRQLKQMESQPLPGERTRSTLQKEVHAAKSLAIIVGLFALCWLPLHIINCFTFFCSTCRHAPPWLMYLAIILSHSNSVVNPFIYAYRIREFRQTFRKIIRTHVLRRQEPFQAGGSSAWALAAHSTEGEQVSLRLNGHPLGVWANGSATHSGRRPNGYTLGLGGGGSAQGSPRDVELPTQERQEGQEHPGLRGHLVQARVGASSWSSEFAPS
# EXPERIMENTAL_DETAILS: Adenosine A₂ receptor binding test (³H-NECA binding)
# ASSAY_CONDITIONS: read-out: Inhibition (%) A₂ Receptor
MEASURED_QUANTITY: inhibition at 0.1 µM (%)
Report only the number, with the unit % understood.

{"COMPOUND": "CCn1c(=O)c2[nH]c(/C=C/c3ccc(OC)c(OC)c3OC)nc2n(CC)c1=O [Compound 7]", "MEASURED": 65}

Report inhibition at 0.1 µM, nothing else, for this compound: CCn1c(=O)c2[nH]c(/C=C/c3ccc(OC)c(C)c3C)nc2n(CC)c1=O [Compound 9]
79

Report inhibition at 0.1 µM, nothing else, for this compound: COc1ccc(/C=C/c2nc3c(c(=O)n(C)c(=O)n3C)n2C)c(C)c1C [Compound 22]
78

Report inhibition at 0.1 µM, nothing else, for this compound: CCn1c(=O)c2c(nc(/C=C/c3ccc(OC)c(C)c3C)n2C)n(CC)c1=O [Compound 10]
91

Report inhibition at 0.1 µM, nothing else, for this compound: CCn1c(=O)c2c(nc(/C=C/c3ccc4c(c3)OCO4)n2C)n(CC)c1=O [Compound 16]
80

Report inhibition at 0.1 µM, nothing else, for this compound: Cn1c(=O)c2c(nc(/C=C/c3ccc4c(c3)OCO4)n2C)n(C)c1=O [Compound 24, (E)-8-(3,4-Methylenedioxystyryl)caffeine]
62

Report inhibition at 0.1 µM, nothing else, for this compound: CCn1c(=O)c2[nH]c(/C=C/c3ccc4c(c3)OCO4)nc2n(CC)c1=O [Compound 15]
53

Report inhibition at 0.1 µM, nothing else, for this compound: CCn1c(=O)c2[nH]c(/C=C/c3ccc(OC)c(OC)c3)nc2n(CC)c1=O [Compound 1]
53
